B1: Ventral anterior homeobox 1, residues 102 to 157; numbered along this chain, Q5SQQ9 (parent)
chain: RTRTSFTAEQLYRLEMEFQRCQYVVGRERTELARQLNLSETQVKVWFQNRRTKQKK

Variants of: B1
Assay details: abundance fitness (aPCA) (normalised: wild type 0, dead -1); higher = more abundant; growth selection in yeast, the domain comes from the species named
Assay setup: Homo sapiens
Quick reference: abundance fitness of the listed items.
Property: abundance fitness

{"columns": ["Variant code", "Reported"],
 "data": [
  ["Q35K", 0.093],
  ["L32Q", -0.959],
  ["N37Q", 0.06],
  ["V24I", -0.086],
  ["Q42G", -0.603],
  ["R50Y", -0.285],
  ["R27H", -0.245],
  ["R34E", -0.235],
  ["R51S", -0.201],
  ["S39M", -0.595],
  ["T30I", -0.211],
  ["R1S", -0.042],
  ["G26V", -0.577],
  ["E17F", -0.031],
  ["T41R", -0.336],
  ["K44W", -0.167],
  ["Q35Y", -0.414],
  ["R3K", 0.168],
  ["Q22N", -0.285],
  ["V45A", 0.02],
  ["E31F", -0.795],
  ["Q19A", -0.002]
]}
